tested on: LNCaP cells (human prostate carcinoma); assay: MTT cell viability assay, LNCaP cells; format: cell-based; details: 48 hours incubation, genistein, read-out: IC, inhibition of LNCaP cells
readout.name: pIC50
Please treat pIC50 as minus the base-10 logarithm of the molar concentration.

Please give measured pIC50 of the following entry: O=c1c(-c2ccc(O)cc2)coc2cc(O)cc(O)c12 [genistein, reference compound] 4.23
